Molecular target: CYP2D6 (Homo sapiens, UniProt P10635)
Construct: 0.1 mg/mL protein human liver microsomes (BD Gentest); tissue BD Gentest; host or cells: human liver microsomes
Sequence (P10635 whole entry): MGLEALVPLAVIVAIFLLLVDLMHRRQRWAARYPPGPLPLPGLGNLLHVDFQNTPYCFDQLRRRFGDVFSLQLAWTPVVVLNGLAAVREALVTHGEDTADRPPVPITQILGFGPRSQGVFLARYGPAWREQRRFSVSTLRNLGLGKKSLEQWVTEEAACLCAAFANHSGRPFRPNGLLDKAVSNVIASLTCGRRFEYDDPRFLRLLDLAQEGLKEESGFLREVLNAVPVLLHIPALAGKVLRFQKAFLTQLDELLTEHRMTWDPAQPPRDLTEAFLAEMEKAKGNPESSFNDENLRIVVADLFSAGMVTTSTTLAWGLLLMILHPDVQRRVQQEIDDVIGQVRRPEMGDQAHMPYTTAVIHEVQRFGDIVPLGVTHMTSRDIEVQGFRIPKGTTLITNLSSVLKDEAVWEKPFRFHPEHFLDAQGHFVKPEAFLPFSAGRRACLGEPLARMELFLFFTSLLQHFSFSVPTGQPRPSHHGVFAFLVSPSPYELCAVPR
Assay: Cocktail assay for CYPs in human liver microsomes: CYP2D6 (dextromethorphan O-demethylation)
Assay type: biochemical
Details: human liver microsomes 0.1 mg/mL, 5 μM dextromethorphan, 10 min at 37° C., 6 concentrations up to 10 μM; read-out: IC50 (nM) CYP2D6
Each record here notes measured IC50.
Give the value in nM but do not write nM after it.

Observe how each entry below is paired with its result.
compound: CC(=O)N1CCN(Cc2cncn2C(C)c2ccccc2-c2ccc(F)cc2)CC1 (stereo not shown) [Compound 60]
observedProperty: IC50
measureUnit: nM
measValue: 4500

compound: CC(Cn1cncc1CN1CCN(c2nc3ccccc3o2)CC1)C(F)(F)F (stereo not shown) [Compound 36]
observedProperty: IC50
measureUnit: nM
measValue: 1720

compound: C[C@H](c1ccc(C#N)cc1)n1cncc1CN1CCN(c2nc3ccccc3o2)CC1 [Compound 24]
observedProperty: IC50
measureUnit: nM
measValue: 3080

compound: COc1ccc(CNc2ncc(CN3CCN(Cc4cncn4[C@H](C)c4ccc(F)cc4)CC3=O)s2)c(OC)c1 [Compound 65]
observedProperty: IC50
measureUnit: nM
measValue: 3360

compound: C[C@H](c1ccc(C#N)cc1)n1cncc1CN1CCN(c2nc3ccc(F)cc3o2)CC1 [Compound 30]
observedProperty: IC50
measureUnit: nM
measValue: 1620

Exercise: Return reported IC50; argument: CC1CN(Cc2cncn2C(C)C2CCOCC2)CC(C)N1C(=O)C1(C)CC1 (stereo not shown) [Compound 56]
Key: 7160

Exercise: Return reported IC50; argument: C[C@H](c1ccc(F)cc1)n1cncc1CN1CCN(c2ccccc2)[C@H](C(=O)N2CCCCC2)C1 [Compound 48]
Key: 4890

Exercise: Return reported IC50; argument: C[C@H](c1ccc(F)cc1)n1cncc1CN1CCC(C#N)(C2CCCC2)CC1 [Compound 5]
Key: 7330

Exercise: Return reported IC50; argument: C[C@H](c1ccc(F)cc1)n1cncc1CN1CCN(Cc2ccccc2)C(=O)C1 [Compound 61]
Key: 2520

###

Biological target: CYP1A2 (Homo sapiens, UniProt P05177)
Construct: 0.1 mg/mL protein human liver microsomes (BD Gentest); tissue BD Gentest; host or cells: human liver microsomes
Sequence (P05177 whole entry): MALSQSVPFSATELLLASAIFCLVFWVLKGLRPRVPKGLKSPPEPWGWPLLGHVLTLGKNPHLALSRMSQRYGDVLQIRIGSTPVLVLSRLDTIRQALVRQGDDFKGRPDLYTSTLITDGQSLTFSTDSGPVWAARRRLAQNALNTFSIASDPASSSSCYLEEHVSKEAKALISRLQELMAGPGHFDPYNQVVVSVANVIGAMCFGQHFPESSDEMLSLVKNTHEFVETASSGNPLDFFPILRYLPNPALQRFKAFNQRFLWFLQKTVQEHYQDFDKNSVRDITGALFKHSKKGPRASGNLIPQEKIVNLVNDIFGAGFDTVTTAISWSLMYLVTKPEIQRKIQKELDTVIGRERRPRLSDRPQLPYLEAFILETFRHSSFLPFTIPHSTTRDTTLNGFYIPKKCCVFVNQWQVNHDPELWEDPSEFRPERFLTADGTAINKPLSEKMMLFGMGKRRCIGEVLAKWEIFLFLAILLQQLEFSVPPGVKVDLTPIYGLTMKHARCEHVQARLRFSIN
Experiment: Cocktail assay for CYPs in human liver microsomes: CYP1A2 (phenacetin O-deethylation)
Format: biochemical
Settings: human liver microsomes 0.1 mg/mL, 10 μM phenacetin, 10 min at 37° C., 6 concentrations up to 10 μM; read-out: IC50 (nM) CYP1A2
Each record here notes measured IC50.

Observe how each entry below is paired with its result.
compound: C[C@H](c1ccc(F)cc1)n1cncc1CN1CCN(Cc2cnc(N(C)C)s2)C(=O)C1
IC50: > 10000 nM
//
compound: C[C@H](c1ccc(F)cc1)n1cncc1CN1CCC(C)(C#N)CC1
IC50: > 10000 nM
//
compound: C[C@H](c1ccc(C#N)cc1)n1cncc1CN1CCN(c2nc3ccc(F)cc3o2)CC1
IC50: > 10000 nM
//
compound: CNc1ncc(CN2CCN(Cc3cncn3[C@H](C)c3ccc(F)cc3)CC2=O)s1
IC50: > 10000 nM

Exercise: Return reported IC50; argument: CC(c1ccccc1-c1ccc(F)cc1)n1cncc1CN1CCCNC(=O)C1 (centres unmarked)
Key: > 10000 nM

Exercise: Return reported IC50; argument: Cc1noc(C2(C)CCN(Cc3cncn3[C@H](C)c3ccc(F)cc3)CC2)n1
Key: > 10000 nM

Exercise: Return reported IC50; argument: C[C@H](c1ccc(C#N)cc1)n1cncc1CN1CCN(c2ccccc2)C(C(=O)NC(C)(C)C)C1 (some centres unmarked)
Key: > 10000 nM

Exercise: Return reported IC50; argument: CC(C)OCCn1cncc1CN1CCN(c2nc3ccccc3o2)CC1
Key: > 10000 nM
